Target: T1, human TNFR2 (Novoprotein, Cat #C830) (human, UniProt P20333 23-257, limits assumed)
T1 construct: construct not described; also called human TNFR2 protein
T1 sequence (looked up): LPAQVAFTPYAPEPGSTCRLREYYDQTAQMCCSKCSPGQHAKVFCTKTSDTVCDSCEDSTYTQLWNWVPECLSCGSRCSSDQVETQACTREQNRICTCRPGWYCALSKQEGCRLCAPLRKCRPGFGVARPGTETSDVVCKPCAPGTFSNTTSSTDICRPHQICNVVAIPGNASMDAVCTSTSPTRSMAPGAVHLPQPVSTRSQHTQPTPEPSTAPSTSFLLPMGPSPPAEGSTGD
Test: competition ELISA, competitor human TNFα-Biotin; area under the OD curve
Procedure: 1 μg/ml human TNFR2 (Novoprotein, Cat #C830) was pre-coated with 100 μl/well of the antibody in an ELISA plate. […] A stop solution was added to stop the reaction, and then a microplate reader (MD 13) was used to read the absorbance value. […]
// values below are reported AUC
Give a plain numeric answer without units written out.

# example entries with known answers
binder: 001-Hu2 (antibody, V domains shown, Humanized form of #001; also called VH2 + VL2) VH: EVQLVESGGGLVQPGGSLRLSCAASGFAFSTYDLSWVRQAPGKGLEWVAYINNGGISTYYSDTVKGRFTISRDNAKNSLYLQMNSLRAEDTAVYYCVRGPFYGSANYFDYWGQGTLVTVSS VL: DIQMTQSPSSLSASVGDRVTITCRTSESIYSNLPWYQQKPGKSPKLLIYDATKLAEGVPSRFSGSGSGTDFTLTISSLQPEDFATYYCQHFWVTPWTFGQGTKVEIK
AUC: 8.1

binder: 224-Hu1 (antibody, V domains shown, Humanized form of #224; also called VH8 + VL6) VH: QVQLVQSGAEVKKPGASVKVSCKASGFNNKDIYMHWVRQAPGQGLEWIGRIDPATGNTKHDPKFQDRVTMTSDTSTNTVYMELSSLRSEDTAVYYCARSPYGDFGAMDYWGQGTLVTVSS VL: DIQMTQSPSSLSASVGDRVTITCTASSSVSSNYLHWYQQKPGKAPKLWIYSTSNLPSGVPSRFSGSGSGTDFTLTISSLQPEDFATYYCHQYHRSPWTFGQGTKVEIK
AUC: 7.12

binder: 001-Hu4 (antibody, V domains shown, Humanized form of #001; also called VH2 + VL4) VH: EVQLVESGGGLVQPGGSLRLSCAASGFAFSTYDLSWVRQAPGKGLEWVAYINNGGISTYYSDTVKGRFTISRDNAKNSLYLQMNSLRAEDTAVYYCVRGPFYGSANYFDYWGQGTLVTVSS VL: DIQMTQSPSSLSASVGDRVTITCRTSESIYSNLPWYQQKPGKSPKLLVYDATKLAEGVPSRFSGSGSGTDYTLTISSLQPEDFATYYCQHFWVTPWTFGQGTKVEIK
AUC: 7.86

query: // returns reported AUC for input 224-Hu5 (antibody, V domains shown, Humanized form of #224; also called VH9 + VL9) VH: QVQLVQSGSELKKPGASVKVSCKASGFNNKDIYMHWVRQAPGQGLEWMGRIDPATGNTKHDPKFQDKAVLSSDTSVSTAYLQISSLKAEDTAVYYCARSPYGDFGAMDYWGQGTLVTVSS VL: DIQMTQSPSSLSASVGDRVTITCTASSSVSSNYLHWYQQKPGKAPKLLIYSTSNLPSGVPSRFSGSGSGTDYSLTISSLQPEDFATYYCHQYHRSPWTFGQGTKVEIK
result: 6.87
